Test system: PDC KRAS tumor spheroids with HUVEC/MSC, viability;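 also: spheroids exposed to compounds for seven days before readout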
Run description: Anticancer human tumor 349418-098-R-PDC patient-derived lung adenocarcinoma cell line growth inhibition [KRAS2]
Condition parameters: second compound 3.16 µM; first compound 0.01 µM; active compounds read low
Label 1 (yes) when viability, T/C is strictly below 10%; otherwise label 0 (no).

| Compound | Assigned class |
| --- | --- |
| CCN1CCN(Cc2ccc(Nc3ncc(F)c(-c4cc(F)c5nc(C)n(C(C)C)c5c4)n3)nc2)CC1 + CC1OCC2(CCN(c3cnc(Sc4ccnc(N)c4Cl)c(N)n3)CC2)C1N | 0 (no) |
| CC(C)n1nc(-c2ccc3oc(N)nc3c2)c2c(N)ncnc21 + COc1cc2nc(C)nc(NC(C)c3cc(N)cc(C(F)(F)F)c3)c2cc1OC1CCOC1 | 1 (yes) |
| CN(C)C/C=C/C(=O)Nc1cc2c(Nc3ccc(F)c(Cl)c3)ncnc2cc1O[C@H]1CCOC1 + CC1OCC2(CCN(c3cnc(Sc4ccnc(N)c4Cl)c(N)n3)CC2)C1N | 0 (no) |
| CC(=O)Nc1cccc(-n2c(=O)n(C3CC3)c(=O)c3c(Nc4ccc(I)cc4F)n(C)c(=O)c(C)c32)c1 + C=CC(=O)N1CCN(c2nc(OCC3CCCN3C)nc3c2CCN(c2cccc4cccc(C)c24)C3)CC1CC#N | 1 (yes) |
| CC1COCCN1c1cc(-c2ccnn2C)c2ccnc(-c3ccn[nH]3)c2n1 (configuration not stated) + CC1OCC2(CCN(c3cnc(Sc4ccnc(N)c4Cl)c(N)n3)CC2)C1N | 0 (no) |
| CC(=O)OC12COC1CC(O)C1(C)C(=O)C(O)C3=C(C)C(OC(=O)C(O)C(NC(=O)OC(C)(C)C)c4ccccc4)CC(O)(C(OC(=O)c4ccccc4)C21)C3(C)C (configuration not stated) + C=CC(=O)N1CCN(c2nc(OCC3CCCN3C)nc3c2CCN(c2cccc4cccc(C)c24)C3)CC1CC#N | 0 (no) |
| CN(C)C/C=C/C(=O)Nc1cc2c(Nc3ccc(F)c(Cl)c3)ncnc2cc1O[C@H]1CCOC1 + C=CC(=O)N1CCN(c2nc(=O)n(-c3c(C)ccnc3C(C)C)c3nc(-c4c(O)cccc4F)c(F)cc23)C(C)C1 | 0 (no) |
| CCN1CCN(Cc2ccc(Nc3ncc(F)c(-c4cc(F)c5nc(C)n(C(C)C)c5c4)n3)nc2)CC1 + CNCc1ccccc1-c1csc(C(C)Nc2nc(C)nc3cc(OC)c(OC)cc23)c1 | 1 (yes) |
| CC(=O)OC12COC1CC(O)C1(C)C(=O)C(O)C3=C(C)C(OC(=O)C(O)C(NC(=O)OC(C)(C)C)c4ccccc4)CC(O)(C(OC(=O)c4ccccc4)C21)C3(C)C (configuration not stated) + COc1cc2nc(C)nc(NC(C)c3cc(N)cc(C(F)(F)F)c3)c2cc1OC1CCOC1 | 0 (no) |
| CCN1CCN(Cc2ccc(Nc3ncc(F)c(-c4cc(F)c5nc(C)n(C(C)C)c5c4)n3)nc2)CC1 + COc1cc2nc(C)nc(NC(C)c3cc(N)cc(C(F)(F)F)c3)c2cc1OC1CCOC1 | 0 (no) |
| CC1COCCN1c1cc(-c2ccnn2C)c2ccnc(-c3ccn[nH]3)c2n1 (configuration not stated) + C=CC(=O)N1CCN(c2nc(=O)n(-c3c(C)ccnc3C(C)C)c3nc(-c4c(O)cccc4F)c(F)cc23)C(C)C1 | 0 (no) |
| CC(=O)Nc1cccc(-n2c(=O)n(C3CC3)c(=O)c3c(Nc4ccc(I)cc4F)n(C)c(=O)c(C)c32)c1 + CC1OCC2(CCN(c3cnc(Sc4ccnc(N)c4Cl)c(N)n3)CC2)C1N | 1 (yes) |
| Cn1ncnc1[C@H]1c2n[nH]c(=O)c3cc(F)cc(c23)N[C@@H]1c1ccc(F)cc1 + C=CC(=O)N1CCN(c2nc(OCC3CCCN3C)nc3c2CCN(c2cccc4cccc(C)c24)C3)CC1CC#N | 1 (yes) |
| Cn1ncnc1[C@H]1c2n[nH]c(=O)c3cc(F)cc(c23)N[C@@H]1c1ccc(F)cc1 + COc1cc2nc(C)nc(NC(C)c3cc(N)cc(C(F)(F)F)c3)c2cc1OC1CCOC1 | 0 (no) |
| CC(=O)Nc1cccc(-n2c(=O)n(C3CC3)c(=O)c3c(Nc4ccc(I)cc4F)n(C)c(=O)c(C)c32)c1 + COc1cc2nc(C)nc(NC(C)c3cc(N)cc(C(F)(F)F)c3)c2cc1OC1CCOC1 | 1 (yes) |
| CN(C)C/C=C/C(=O)Nc1cc2c(Nc3ccc(F)c(Cl)c3)ncnc2cc1O[C@H]1CCOC1 + COc1cc2nc(C)nc(NC(C)c3cc(N)cc(C(F)(F)F)c3)c2cc1OC1CCOC1 | 0 (no) |
| Cn1ncnc1[C@H]1c2n[nH]c(=O)c3cc(F)cc(c23)N[C@@H]1c1ccc(F)cc1 + C=CC(=O)N1CCN(c2nc(=O)n(-c3c(C)ccnc3C(C)C)c3nc(-c4c(O)cccc4F)c(F)cc23)C(C)C1 | 0 (no) |
| CN(C)C/C=C/C(=O)Nc1cc2c(Nc3ccc(F)c(Cl)c3)ncnc2cc1O[C@H]1CCOC1 + CNCc1ccccc1-c1csc(C(C)Nc2nc(C)nc3cc(OC)c(OC)cc23)c1 | 1 (yes) |
| CC(C)n1nc(-c2ccc3oc(N)nc3c2)c2c(N)ncnc21 + CC1OCC2(CCN(c3cnc(Sc4ccnc(N)c4Cl)c(N)n3)CC2)C1N | 1 (yes) |
| CC1COCCN1c1cc(-c2ccnn2C)c2ccnc(-c3ccn[nH]3)c2n1 (configuration not stated) + C=CC(=O)N1CCN(c2nc(OCC3CCCN3C)nc3c2CCN(c2cccc4cccc(C)c24)C3)CC1CC#N | 1 (yes) |
| CCN1CCN(Cc2ccc(Nc3ncc(F)c(-c4cc(F)c5nc(C)n(C(C)C)c5c4)n3)nc2)CC1 + C=CC(=O)N1CCN(c2nc(OCC3CCCN3C)nc3c2CCN(c2cccc4cccc(C)c24)C3)CC1CC#N | 1 (yes) |
| CC(=O)Nc1cccc(-n2c(=O)n(C3CC3)c(=O)c3c(Nc4ccc(I)cc4F)n(C)c(=O)c(C)c32)c1 + C=CC(=O)N1CCN(c2nc(=O)n(-c3c(C)ccnc3C(C)C)c3nc(-c4c(O)cccc4F)c(F)cc23)C(C)C1 | 0 (no) |
